# System: HS-Sch-2
# assay-info: drug sensitivity score (DSS, CellTiter-Glo viability, 72 h) (DSS (dimensionless)); higher = more sensitive; extreme values may be limits of the assay
endpoint-name: drug sensitivity score

Entry C[C@]1(c2nc3c(C(N)=O)cccc3[nH]2)CCCN1 [Veliparib] (max concentration tested 10000 nM) : reported drug sensitivity score = ?
0

Try this molecule too: Cn1ncnc1[C@H]1c2n[nH]c(=O)c3cc(F)cc(c23)N[C@@H]1c1ccc(F)cc1 [Talazoparib] (max concentration tested 1000 nM)
1.84

Try this molecule too: CN(C)C/C=C/C(=O)Nc1cc2c(Nc3ccc(F)c(Cl)c3)ncnc2cc1O[C@H]1CCOC1 [Afatinib] (max concentration tested 1000 nM)
1.58

###

# Test system: STS26T
# assay-info: drug sensitivity score (DSS, CellTox-Green cytotoxicity, 72 h) (DSS (dimensionless)); higher = more cytotoxic; extreme values may be limits of the assay
endpoint-name: drug sensitivity score

Entry CN[C@@H](C)C(=O)N[C@H]1CN(C(=O)CC(C)C)CC[C@H]2CC[C@@H](C(=O)NC(c3ccccc3)c3ccccc3)N2C1=O [AT-406] (max concentration tested 10000 nM) : reported drug sensitivity score = ?
22.4

Try this molecule too: Cn1c(=O)c(F)c(Nc2ccc(I)cc2F)c2c(=O)n(C[C@@H](O)CO)cnc21 [TAK-733] (max concentration tested 1000 nM)
0.198

Try this molecule too: O=c1[nH]cc(F)c(=O)[nH]1 [Fluorouracil] (max concentration tested 10000 nM)
0

###

# Test system: S462
# assay-info: % inhibition of CellTiter-Glo viability at highest tested concentration (72 h), relative to DMSO and benzethonium chloride controls; higher = more inhibition
endpoint-name: % inhibition (%)
Kindly answer with a numeric value in %, unit omitted.

Entry CN[C@@H](C)C(=O)N[C@H]1CN(C(=O)CC(C)C)CC[C@H]2CC[C@@H](C(=O)NC(c3ccccc3)c3ccccc3)N2C1=O [AT-406] (max concentration tested 10000 nM) : reported % inhibition = ?
3.84

Try this compound too: COc1cc2c(NC3CCN(C(C)C)CC3)nc(C3CCCCC3)nc2cc1OCCCN1CCCC1 [UNC0638] (max concentration tested 10000 nM)
98.9

Try this compound too: C[C@]1(c2nc3c(C(N)=O)cccc3[nH]2)CCCN1 [Veliparib] (max concentration tested 10000 nM)
12

Try this compound too: O=C(O)CCCc1ccc(N(CCCl)CCCl)cc1 [Chlorambucil] (max concentration tested 10000 nM)
-2.04

Try this compound too: Cc1ccc(C(=O)N(CCCN)[C@@H](c2oc3cc(Cl)ccc3c(=O)c2Cc2ccccc2)C(C)C)cc1 (max concentration tested 100 nM)
-2.08

Try this compound too: O=c1[nH]cc(F)c(=O)[nH]1 [Fluorouracil] (max concentration tested 10000 nM)
27.2

Try this compound too: COc1cccc2c1C(=O)c1c(O)c3c(c(O)c1C2=O)C[C@@](O)(C(C)=O)C[C@@H]3O[C@H]1C[C@H](N)[C@H](O)[C@H](C)O1 [Daunorubicin] (max concentration tested 1000 nM)
98.6

Try this compound too: CC/C(=C(\c1ccc(O)cc1)c1ccc(OCCN(C)C)cc1)c1ccccc1 [4-hydroxytamoxifen] (max concentration tested 10000 nM)
46.1

Try this compound too: CC(C)(C#N)c1cc(Cn2cncn2)cc(C(C)(C)C#N)c1 [Anastrozole] (max concentration tested 10000 nM)
-13.3

Try this compound too: CC(C)(C)Cn1c(N)nc2ccc(-c3[nH]c(C(C)(C)C)nc3-c3ccc(F)cc3)nc21 [Ralimetinib] (max concentration tested 10000 nM)
13.4

Try this compound too: COc1ccc(-c2cc3c(C)nc(N)nc3n([C@H]3CC[C@H](OCCO)CC3)c2=O)cn1 (max concentration tested 10000 nM)
87

Try this compound too: CCCS(=O)(=O)Nc1ccc(F)c(C(=O)c2c[nH]c3ncc(-c4ccc(Cl)cc4)cc23)c1F [Vemurafenib] (max concentration tested 10000 nM)
12.6

Try this compound too: CCC1(c2ccc(N)cc2)CCC(=O)NC1=O (centres undefined) [Aminoglutethimide] (max concentration tested 10000 nM)
-7.67

Try this compound too: CN1CCc2c(c3ccccc3n2Cc2ccc(C(=O)NO)cc2)C1 [Tubastatin A] (max concentration tested 10000 nM)
80.8

Try this compound too: O=C1CCC(N2C(=O)c3ccccc3C2=O)C(=O)N1 (centres undefined) [Thalidomide] (max concentration tested 10000 nM)
-8.98

Try this compound too: CC(C)C[C@H](NC(=O)[C@H](CCc1ccccc1)NC(=O)CN1CCOCC1)C(=O)N[C@@H](Cc1ccccc1)C(=O)N[C@@H](CC(C)C)C(=O)[C@@]1(C)CO1 [Carfilzomib] (max concentration tested 1000 nM)
104

Try this compound too: COc1ccc(S(=O)(=O)Nc2cccnc2Nc2ccc(O)cc2)cc1 [ABT-751] (max concentration tested 10000 nM)
96.5

Try this compound too: CCc1c(C(=O)C(N)=O)c2c(OCC(=O)O)cccc2n1Cc1ccccc1 [Varespladib] (max concentration tested 10000 nM)
7.05

Try this compound too: CCN1CCN(c2ccc(Nc3cc(N(C)C(=O)Nc4c(Cl)c(OC)cc(OC)c4Cl)ncn3)cc2)CC1 [NVP-BGJ398] (max concentration tested 1000 nM)
0.872

Try this compound too: CC(=O)N(O)CCCCCNC(=O)CCC(=O)N(O)CCCCCNC(=O)CCC(=O)N(O)CCCCCN [Deferoxamine aq] (max concentration tested 10000 nM)
74.6

Try this compound too: CS(=O)(=O)N1CCN(Cc2cc3nc(-c4cccc5[nH]ncc45)nc(N4CCOCC4)c3s2)CC1 [Pictilisib] (max concentration tested 10000 nM)
68.5

Try this compound too: O=C(Nc1ccc2[nH]nc(-c3ccncc3)c2c1)[C@@H]1CCN(CC(=O)N2CCN(c3ccc(-c4ncccn4)cc3)CC2)C1 (max concentration tested 10000 nM)
97

Try this compound too: COc1nc(N)nc2c1ncn2[C@@H]1O[C@H](CO)[C@@H](O)[C@@H]1O [Nelarabine] (max concentration tested 10000 nM)
8.35

Try this compound too: CN(C)CCN1C(=O)c2cccc3cc(N)cc(c23)C1=O [Amonafide] (max concentration tested 10000 nM)
90.9
